molecular target: Eukaryotic translation initiation factor 4E (Mus musculus, UniProt P63073)
Sequence (P63073 whole entry): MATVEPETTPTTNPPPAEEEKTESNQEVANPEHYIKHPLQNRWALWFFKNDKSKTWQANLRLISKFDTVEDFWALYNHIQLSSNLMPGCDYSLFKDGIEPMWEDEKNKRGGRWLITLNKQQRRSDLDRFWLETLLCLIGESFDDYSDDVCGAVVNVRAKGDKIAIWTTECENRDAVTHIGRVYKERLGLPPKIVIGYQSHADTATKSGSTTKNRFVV
readout_type: pKd
Answer as the number alone; pKd is minus log10 of concentration in mol/L.

Please report the recorded pKd for C[n+]1cn([C@@H]2O[C@H](Cn3cc(P(=O)([O-])O)nn3)[C@@H](O)[C@H]2O)c2nc(N)[nH]c(=O)c21 .
5.23

====

Target: 7-methylguanosine phosphate-specific 5'-nucleotidase (Homo sapiens, UniProt Q969T7)
Sequence (Q969T7 whole entry): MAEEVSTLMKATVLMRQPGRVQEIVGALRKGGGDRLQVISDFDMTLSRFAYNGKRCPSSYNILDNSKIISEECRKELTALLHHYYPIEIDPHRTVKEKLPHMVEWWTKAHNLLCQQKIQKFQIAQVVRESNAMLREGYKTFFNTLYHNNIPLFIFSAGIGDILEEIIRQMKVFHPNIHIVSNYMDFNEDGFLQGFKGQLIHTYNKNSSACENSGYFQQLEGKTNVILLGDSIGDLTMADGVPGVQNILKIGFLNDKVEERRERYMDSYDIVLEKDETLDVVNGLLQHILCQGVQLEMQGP
Experiment: Inhibition of recombinant His6/SUMO-tagged human cN3B (1 to 300 residues) expressed in Escherichia coli BL21(DE3) RIL assessed as reduction in dephosphorylation of m7GMP substrate after 45 mins by malachite green dye based assay
readout_type: pIC50
Answer as the number alone; pIC50 is minus log10 of concentration in mol/L.

Lab note: need pIC50 with 7-methylguanosine phosphate-specific 5'-nucleotidase (Homo sapiens, UniProt Q969T7) for entry C[n+]1cn([C@@H]2O[C@H](Cn3cc(P(=O)([O-])O)nn3)[C@@H](O)[C@H]2O)c2nc(N)[nH]c(=O)c21 , please look it up.
3.89
